Assay: in vitro
Conditions: human, hela cells, % viability
property label: viability at 28.5 h, 10 µM (%)

{"molecule": "O=C(Cc1ccccc1)N/N=C/c1cccc2cccnc12 [CBK262778]", "meas value": 85.7}
{"molecule": "O=C(OCC(=O)c1cccc2ccccc12)c1cc2ccccc2cc1O [CBK265526]", "meas value": 102}
{"molecule": "CCc1c(C)nc2ccccc2c1SCCOC(=O)Nc1ccc(OC)cc1 [CBK155554T]", "meas value": 92.5}
{"molecule": "Cc1[nH]c(=O)[nH]c(=O)c1CC(=O)N1CCCCC1CN1CCCCC1 (stereo not shown) [CBK286344]", "meas value": 98.8}
{"molecule": "S=C(NCCc1ccccc1)NCCN1CCOCC1 [CBK264929]", "meas value": 87.4}
{"molecule": "Cc1cc(C[C@@H]2CCC[C@H]2NCc2cccnc2)on1 [CBK284933]", "meas value": 97.1}
{"molecule": "O=c1[nH]c(SCc2n[nH]c(=S)n2-c2ccccc2)nc2sc3c(c12)CCCC3 [CBK300538]", "meas value": 118}
{"molecule": "CNC(=O)c1ccc(-c2ccc(N3CCOCC3)cc2)nc1NCC1CC1 [CBK106305]", "meas value": 102}
{"molecule": "COCC(=O)N[C@H]1C[C@H]2C(=O)Nc3ccc(Br)cc3C(=O)N2C1 [CBK289357]", "meas value": 97.6}
{"molecule": "CC(=O)N1CCCc2cc(NC(=O)NCCc3cnn(C)c3)ccc21 [CBK304937]", "meas value": 88.7}
